src = ChEMBL document CHEMBL1122703

PROTOCOL_SUMMARY: Partition coefficient (logD7.4)
ASSAY_CONDITIONS: octanol/water, pH 7.4
METRIC_NAME: logD
Answer with a number only.

Exercise: Supply recorded logD for COCCN(C)c1ccc(Nn2c(C)ccc2C)nn1 here.
Key: 2.16

Exercise: Supply recorded logD for CC(=O)N(c1ccc(N2CCOCC2)nn1)n1c(C)ccc1C here.
Key: 1.64

Exercise: Supply recorded logD for Cc1ccc(C)n1N(C)c1ccc(N2CCOCC2)nn1 here.
Key: 2.21

Exercise: Supply recorded logD for CCc1ccc(CC)n1Nc1ccc(N2CCOCC2)nn1 here.
Key: 2.71
